MEASUREMENT DESCRIPTION: logP by HPLC on reversed-phase columns (C 18), method [a], acidic range pH 2.3
Assay type: physicochemical
EXPERIMENTAL CONDITIONS: pH 2.3, logP (pH2.3)
EXPERIMENTAL READOUT: chromatographic logP
// return just the number, without any unit appended

// known answers, use as guide
1) Clc1ncc(Cl)c(NC2CC2)n1; 1.77
2) CCCSc1cccc(Nc2ncc(Cl)c(NC(C)C)n2)c1; 3.27
3) CCC(SC)c1cccc(Nc2ncc(Cl)c(NC3CC3)n2)c1 (centres unmarked); 2.59

INPUT: Give its chromatographic logP value. Item: COC(C)c1cccc(Nc2ncc(C(F)(F)F)c(Cl)n2)c1 (centres unmarked)
OUTPUT: 3.89

INPUT: Now this one: CCSC(CC)c1cccc([N+](=O)[O-])c1 (centres unmarked)
OUTPUT: 3.96

###

MEASUREMENT DESCRIPTION: logP by LC-MS on reversed-phase columns (C 18), method [c], neutral range pH 7.8
Assay type: physicochemical
EXPERIMENTAL CONDITIONS: pH 7.8
Reported chromatographic logP values for a set of compounds

1. CCC(C)S(=O)(=O)C(C)c1cccc(Nc2ncc(Cl)c(NC3CC3)n2)c1 (centres unmarked); 3.16
2. CCS(=O)(=O)C(C)c1cccc(Nc2ncc(Cl)c(NC(C)C)n2)c1 (centres unmarked); 2.89
3. CCCS(=O)(=O)c1cccc(Nc2ncc(Br)c(NC3CC3)n2)c1; 2.99
4. CCS(=O)(=O)c1cccc(Nc2ncc(Cl)c(NC3CC3)n2)c1; 2.48

# ---- query compound ----
INPUT: // returns reported chromatographic logP for input CCC(C)[S+]([O-])C(C)c1cccc(Nc2ncc(C(F)(F)F)c(NC3CC3)n2)c1 (centres unmarked)
OUTPUT: 3.11

###

MEASUREMENT DESCRIPTION: logP by LC-MS on reversed-phase columns (C 18), method [b], acidic range pH 2.7
Format: physicochemical
EXPERIMENTAL CONDITIONS: pH 2.7, log p
EXPERIMENTAL READOUT: chromatographic logP
In your answer, state the number alone without any accompanying words.

Example molecules with recorded chromatographic logP:
1. CCOCCCSc1cccc(Nc2ncc(Cl)c(NC3CC3)n2)c1 [Example 204]; 3.02
2. CCCSc1cccc(Nc2ncc(Cl)c(NC3CCC3)n2)c1 [Example 5]; 3.66
3. CCCSc1cccc(Nc2ncc(Cl)c(NC(C)C)n2)c1 [Example 31]; 3.3

Attention now turns to another entry.
INPUT: Entry under review: CCCC[S+]([O-])c1cccc(Nc2ncc(C(F)(F)F)c(NC3CC3)n2)c1 (stereo not shown) [Example 122] . Reported chromatographic logP?
OUTPUT: 2.94

###

Listing: chromatographic logP of selected molecules
MEASUREMENT DESCRIPTION: logP by LC-MS on reversed-phase columns (C 18), method [c], neutral range pH 7.8
Format: physicochemical
EXPERIMENTAL CONDITIONS: pH 7.8
Lab note: jot down the number only; don't add units.

Reference set (2 entries):
1. COCc1cccc(Nc2ncc(F)c(NC3CCC3)n2)c1 [Example 8]; 2.95
2. CCOCCSc1cccc(Nc2ncc(C(F)(F)F)c(NC3CC3)n2)c1 [Example 190]; 4.05

Continue with the molecule presented below.
INPUT: Fill blank: measured chromatographic logP of the molecule CCS(=O)(=O)C(C)c1cccc(Nc2ncc(Cl)c(NC3CCC3)n2)c1 (stereo not drawn) [Example 77] is ____.
OUTPUT: 2.98
